I'd appreciate it if you could supply Kd values for the items below.
Biological target: T1, Full-length bovine RIα (bovine, UniProt P00514 1-380)
T1 construct: mature; given as full-length
T1 sequence (P00514 whole entry): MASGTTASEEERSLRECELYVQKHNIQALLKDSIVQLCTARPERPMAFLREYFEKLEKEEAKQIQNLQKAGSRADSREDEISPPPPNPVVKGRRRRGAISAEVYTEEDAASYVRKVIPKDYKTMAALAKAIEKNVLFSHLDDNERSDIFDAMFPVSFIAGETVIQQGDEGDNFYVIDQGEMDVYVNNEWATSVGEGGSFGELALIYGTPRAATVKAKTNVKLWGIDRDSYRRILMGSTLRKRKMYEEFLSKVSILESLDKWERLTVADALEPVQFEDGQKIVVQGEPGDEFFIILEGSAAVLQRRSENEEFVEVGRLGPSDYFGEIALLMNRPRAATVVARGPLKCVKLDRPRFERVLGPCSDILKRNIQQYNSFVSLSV
Test: fluorescence anisotropy, labeled peptide, n = 3
Ends that are not written are not given here.
Answers are plain numbers, in nM.

Past entries and their recorded results:
1. VQGNTDEAQEELAWKIAKMIVSDVMQQC(tetramethylrhodamine‑5‑maleimide)-NH2 (also called unsubstituted peptide) [AKB (dual), WT (SEQ ID NO:108) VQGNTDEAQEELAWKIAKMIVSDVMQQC, rhodamine-labeled] :: 48
2. VQGNTDEAQEELLWKIAKMIVSDVMQQC(tetramethylrhodamine‑5‑maleimide)-NH2 (also called RIIα-specific (A13L)) [AKB (RII), RII specific (SEQ ID NO:109) VQGNTDEAQEELLWKIAKMIVSDVMQQC, rhodamine-labeled] :: 2490
3. VQGNTDEAQEELAWKIEKMIWSDVMQQC(tetramethylrhodamine‑5‑maleimide)-NH2 (also called null peptide (A17E and V21W)) [AKB (null) (SEQ ID NO:110) VQGNTDEAQEELAWKIEKMIWSDVMQQC, rhodamine-labeled] :: 998

[in] Fill in: Kd of FEELAWKIAKMIWSDVFQQC(tetramethylrhodamine‑5‑maleimide)-NH2 (also called PV-38; RIα-specific (Q9F, V21W, M25F)) [AKB (RI), RI specific (SEQ ID NO:103) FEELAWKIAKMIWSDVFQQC, rhodamine-labeled] is ___
[out] 5.2
